experiment: Inhibition of urease
ATTRIBUTE MEASURED: IC50 (nM)

[[record]]
smiles_str = "CCOC(=O)C(C)=C=C(c1ccccc1)c1ccccc1"
attribute_measured = "IC50"
readout_number = 1100


###

assay: Dissociation constant, pKa of the compound; type: physicochemical
ATTRIBUTE MEASURED: pKa

[[record]]
molecule = "N[C@@H](CCC(=O)N[C@@H](CS)C(=O)NCC(=O)O)C(=O)O [GLUTATHIONE]"
result = 8.7


###

biological target: Cathepsin B (Homo sapiens, UniProt P07858); experiment: Inhibition of cathepsin B in oxygen free condition
ATTRIBUTE MEASURED: IC50 (µM)

[[record]]
smiles_str = "CCOC(=O)C(C)=C=C(c1ccccc1)c1ccccc1"
readout_number = 232

